Hello, the source for this data is paper PMC11012289, in case you need it.

- Tested system: IRAP (Homo sapiens, UniProt Q9UIQ6)
- Construct: The screen was performed with the soluble truncated IRAP enzyme; made in house
- Sequence (Q9UIQ6 155-1025 limits assumed): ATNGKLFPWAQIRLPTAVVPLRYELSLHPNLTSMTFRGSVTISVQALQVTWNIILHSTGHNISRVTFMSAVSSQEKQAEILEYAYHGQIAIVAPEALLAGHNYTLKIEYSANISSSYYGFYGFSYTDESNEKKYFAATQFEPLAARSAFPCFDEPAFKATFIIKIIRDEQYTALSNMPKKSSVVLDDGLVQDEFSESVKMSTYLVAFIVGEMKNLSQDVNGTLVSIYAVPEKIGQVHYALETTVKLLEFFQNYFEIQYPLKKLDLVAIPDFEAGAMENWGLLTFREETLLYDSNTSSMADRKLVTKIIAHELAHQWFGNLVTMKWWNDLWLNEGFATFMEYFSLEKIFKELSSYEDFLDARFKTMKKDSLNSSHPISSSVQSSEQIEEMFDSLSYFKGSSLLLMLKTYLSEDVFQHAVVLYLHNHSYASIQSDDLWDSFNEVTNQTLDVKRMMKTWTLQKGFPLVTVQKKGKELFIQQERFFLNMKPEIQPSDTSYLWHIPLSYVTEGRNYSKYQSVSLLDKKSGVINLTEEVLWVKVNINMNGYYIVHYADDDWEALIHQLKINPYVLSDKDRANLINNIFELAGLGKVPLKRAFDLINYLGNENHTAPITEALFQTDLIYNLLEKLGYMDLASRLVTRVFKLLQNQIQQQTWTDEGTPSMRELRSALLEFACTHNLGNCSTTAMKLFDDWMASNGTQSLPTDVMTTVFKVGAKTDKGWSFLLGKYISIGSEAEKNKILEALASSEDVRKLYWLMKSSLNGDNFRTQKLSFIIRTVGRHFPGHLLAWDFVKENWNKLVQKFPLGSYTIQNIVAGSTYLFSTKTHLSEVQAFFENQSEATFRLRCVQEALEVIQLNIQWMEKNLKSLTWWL
- Assay: Primary fluorescence IRAP assay (L-Leucine-7-amido-4-methylcoumarin cleavage)
- Assay type: biochemical
- Condition summary: 37.5 µM L-Leucine-7-amido-4-methylcoumarin, 60 min RT, dose-response 20 µM-27.4 nM; read-out: Fluorescence IC50
Criterion: IC50 strictly less than 4 µM. Met: Condition met. Not met: Condition not met.

Solved cases (4 shown):
O=C(N1CCCC1)C1(CNS(=O)(=O)c2cccc3ccccc23)CC12CCCCC2 (stereo not shown) : Condition not met
O=C(Cc1cc(N2CCCCC2)nc(-c2cccc(F)c2)n1)NO : Condition met
O=C(NO)C(CS(=O)(=O)N1CCC(c2ccc(F)cc2Cl)CC1)C1CCOCC1 (stereo not shown) : Condition met
Cc1cc2nc(N)n(Cc3ccccc3)c2cc1C : Condition not met

Asked: Determine if O=C(C1CCCCC1)N1CCC[C@@H]1c1cc(-c2cccnc2)on1 shows IC50 strictly lower than 4 µM.
Given back: Condition met

Asked: Continue with CC(C)C(CS(=O)(=O)N1CCC(c2ccc(F)cc2Cl)C1)C(=O)NO (stereo not shown)
Given back: Condition met

Asked: Continue with Cc1cccc(Cl)c1CNc1ncnc2ncn(C)c12
Given back: Condition met

Asked: Continue with CCn1c(=O)n(CC(=O)N(C)CCc2ccc(O)c3[nH]c(=O)sc23)c2ccccc21
Given back: Condition not met

Asked: Continue with CCCCc1nc2ccn(Cc3cccc(C#N)c3)c(=O)c2n1Cc1cccc(C#N)c1
Given back: Condition not met

Asked: Continue with O=C(Cc1cc(N2CCCCCC2)nc(-c2ccc(Cl)cc2)n1)NO
Given back: Condition met
